- System under test: Ephrin type-A receptor 4 (Homo sapiens, UniProt P54764); also: in the data inactive means no Kd found up to 30 µM
- Sequence (P54764 whole entry): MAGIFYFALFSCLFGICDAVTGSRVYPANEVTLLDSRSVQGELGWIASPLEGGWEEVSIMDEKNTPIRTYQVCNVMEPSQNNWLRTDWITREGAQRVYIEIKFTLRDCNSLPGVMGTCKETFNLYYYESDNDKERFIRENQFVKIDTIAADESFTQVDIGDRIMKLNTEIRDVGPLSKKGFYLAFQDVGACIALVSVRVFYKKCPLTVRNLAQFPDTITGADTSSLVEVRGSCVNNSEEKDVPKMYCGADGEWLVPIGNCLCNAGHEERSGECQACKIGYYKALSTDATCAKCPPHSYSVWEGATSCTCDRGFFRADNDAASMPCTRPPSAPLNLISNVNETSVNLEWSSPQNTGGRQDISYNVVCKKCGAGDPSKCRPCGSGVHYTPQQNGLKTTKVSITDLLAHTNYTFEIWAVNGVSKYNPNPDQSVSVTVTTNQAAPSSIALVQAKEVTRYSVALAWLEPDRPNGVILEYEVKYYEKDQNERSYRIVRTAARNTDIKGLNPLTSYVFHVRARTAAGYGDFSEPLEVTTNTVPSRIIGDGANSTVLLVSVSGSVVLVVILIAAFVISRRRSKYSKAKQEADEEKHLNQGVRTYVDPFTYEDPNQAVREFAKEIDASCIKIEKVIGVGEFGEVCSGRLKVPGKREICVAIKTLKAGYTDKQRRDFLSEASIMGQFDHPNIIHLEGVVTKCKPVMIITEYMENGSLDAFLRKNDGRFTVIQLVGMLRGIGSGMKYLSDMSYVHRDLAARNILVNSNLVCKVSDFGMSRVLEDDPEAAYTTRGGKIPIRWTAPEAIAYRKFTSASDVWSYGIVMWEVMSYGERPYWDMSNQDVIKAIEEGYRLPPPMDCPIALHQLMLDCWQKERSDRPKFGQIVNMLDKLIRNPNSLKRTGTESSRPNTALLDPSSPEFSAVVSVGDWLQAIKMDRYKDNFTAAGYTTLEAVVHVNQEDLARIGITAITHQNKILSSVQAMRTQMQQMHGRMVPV
Active and inactive are the calls of the source.
Outcome codes: T = active, F = inactive

> print(dat)
                                   compound  classification
1  O=C(Nc1nc2cccc(-c3ccc(CN4CCS(=O)(=O)CC4)cc3)n2n1)C1CC1 [FILGOTINIB]               F
2  NC(=O)Nc1cc(-c2cccc(F)c2)sc1C(=O)N[C@H]1CCCNC1 [AZD-7762]               F
3  COc1ccc(S(=O)(=O)N(C(C)=O)c2ccccc2/C=C/c2cc[n+]([O-])cc2)cc1 [HMN-214]               F
4  CCNC(=O)C#Cc1ccc2c(c1)NC(=O)/C2=C(\Nc1ccc(CN(C)C)cc1)c1ccccc1               F
5  C#Cc1cccc(Nc2ncnc3cc(OC)c(OCCCCCCC(=O)NO)cc23)c1 [CUDC-101]               F
6  COc1cc2c(Nc3ccc(Cl)c(Cl)c3F)ncnc2cc1OC[C@@H]1C[C@@H]2CN(C)C[C@@H]2C1 [TESEVATINIB]               T
7  NC1(c2ccc(-c3nc4ccn5c(=O)[nH]nc5c4cc3-c3ccccc3)cc2)CCC1 [MK-2206]               F
8  CCn1c(C(=O)N(C2CC2)C2CC2)cc2c3c(ncn3C)c(Nc3cc(C)n(C)n3)nc21 [BMS-911543]               F

---

- System under test: AarF domain-containing protein kinase 1 (Homo sapiens, UniProt Q86TW2); also: in the data inactive means no Kd found up to 30 µM
- Sequence (Q86TW2 whole entry): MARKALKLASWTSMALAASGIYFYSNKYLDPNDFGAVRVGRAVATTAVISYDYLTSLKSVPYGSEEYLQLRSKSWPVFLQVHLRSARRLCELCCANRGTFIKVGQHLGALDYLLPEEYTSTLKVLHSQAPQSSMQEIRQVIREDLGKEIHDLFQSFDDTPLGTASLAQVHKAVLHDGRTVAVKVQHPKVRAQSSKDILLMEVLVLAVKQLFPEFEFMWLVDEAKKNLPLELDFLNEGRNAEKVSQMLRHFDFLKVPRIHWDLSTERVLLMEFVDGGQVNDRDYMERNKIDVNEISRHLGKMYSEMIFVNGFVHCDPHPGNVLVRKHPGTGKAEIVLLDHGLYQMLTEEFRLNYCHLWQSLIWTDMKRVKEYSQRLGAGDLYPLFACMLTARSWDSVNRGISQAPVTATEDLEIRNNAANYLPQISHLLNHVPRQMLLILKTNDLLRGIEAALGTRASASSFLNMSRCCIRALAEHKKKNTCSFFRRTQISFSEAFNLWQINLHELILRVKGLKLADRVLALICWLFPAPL
Where a name gives a salt, the structure may show the parent alone. Calls of active or inactive are those of the source.
The reader will find reported Kd values listed item by item below.

Molecule	Kd
CO[C@H]1C[C@@H]2CC[C@@H](C)[C@@](O)(O2)C(=O)C(=O)N2CCCC[C@H]2C(=O)O[C@H]([C@H](C)C[C@@H]2CC[C@@H](O)[C@H](OC)C2)CC(=O)[C@H](C)/C=C(\C)[C@@H](O)[C@@H](OC)C(=O)[C@H](C)C[C@H](C)/C=C/C=C/C=C/1C	> 30 µM (inactive)
Nc1ncnc2c1c(-c1cccc(OCc3ccccc3)c1)cn2[C@H]1C[C@@H](CN2CCC2)C1	> 30 µM (inactive)
COc1ncc(-c2ccc3nccc(-c4ccnnc4)c3c2)cc1NS(=O)(=O)c1ccc(F)cc1F	> 30 µM (inactive)
Cc1cccc(-c2nn3c(c2-c2ccnc4ccc(C(N)=O)cc24)CCC3)n1	> 30 µM (inactive)
CCS(=O)(=O)N1CCN(c2ccc(Nc3ncc(C(N)=O)c(NC4CC4)n3)cc2)CC1 [Cerdulatinib Hydrochloride]	> 30 µM (inactive)
CCn1c(C(=O)N(C2CC2)C2CC2)cc2c3c(ncn3C)c(Nc3cc(C)n(C)n3)nc21	> 30 µM (inactive)

---

- System under test: Serine/threonine-protein kinase TAO1 (Homo sapiens, UniProt Q7L7X3); also: in the data inactive means no Kd found up to 30 µM
- Sequence (Q7L7X3 whole entry): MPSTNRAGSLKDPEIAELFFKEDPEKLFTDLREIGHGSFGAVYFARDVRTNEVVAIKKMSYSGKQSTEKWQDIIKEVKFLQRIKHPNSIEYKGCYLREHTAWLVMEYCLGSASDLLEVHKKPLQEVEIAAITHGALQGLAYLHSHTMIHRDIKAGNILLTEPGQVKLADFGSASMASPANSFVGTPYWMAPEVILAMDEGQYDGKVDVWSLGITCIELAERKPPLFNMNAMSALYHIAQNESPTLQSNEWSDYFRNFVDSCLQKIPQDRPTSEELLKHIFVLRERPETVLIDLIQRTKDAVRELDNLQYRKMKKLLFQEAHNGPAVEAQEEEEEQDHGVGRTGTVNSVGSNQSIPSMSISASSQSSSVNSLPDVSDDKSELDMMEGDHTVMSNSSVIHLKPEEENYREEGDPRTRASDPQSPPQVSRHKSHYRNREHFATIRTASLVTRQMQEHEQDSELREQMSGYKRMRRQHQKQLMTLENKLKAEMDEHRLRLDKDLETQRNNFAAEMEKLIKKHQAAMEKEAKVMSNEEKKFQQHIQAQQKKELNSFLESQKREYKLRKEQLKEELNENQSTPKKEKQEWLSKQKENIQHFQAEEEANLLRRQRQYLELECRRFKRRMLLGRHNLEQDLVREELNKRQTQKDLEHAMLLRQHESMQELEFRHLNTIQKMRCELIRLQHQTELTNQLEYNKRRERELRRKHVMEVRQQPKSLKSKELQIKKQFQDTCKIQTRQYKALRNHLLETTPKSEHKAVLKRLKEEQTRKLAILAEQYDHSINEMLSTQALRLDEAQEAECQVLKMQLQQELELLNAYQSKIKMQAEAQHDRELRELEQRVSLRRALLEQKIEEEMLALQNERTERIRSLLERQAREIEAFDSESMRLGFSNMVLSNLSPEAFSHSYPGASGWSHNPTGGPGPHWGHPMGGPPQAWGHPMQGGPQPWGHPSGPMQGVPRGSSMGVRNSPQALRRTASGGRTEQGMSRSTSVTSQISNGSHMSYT
The source made the active and inactive calls.
Outcome codes: TRUE = active, FALSE = inactive

> print(dat)
                                   molecule  classification
1  Cc1cnc(NC(=O)Nc2cc(Br)c(C)cc2OC[C@@H]2CNCCO2)cn1 [RABUSERTIB]           FALSE
2  CC(C)c1cc(CNc2nc(Nc3cc(C4CC4)[nH]n3)cc(N3CCN(C)CC3)n2)on1 [XL-228]           FALSE
3  O=C(Nc1nc2cccc(-c3ccc(CN4CCS(=O)(=O)CC4)cc3)n2n1)C1CC1 [FILGOTINIB]           FALSE
4  COc1c(OCCCN2CCOCC2)ccc2c1N=C(NC(=O)c1cnc(N)nc1)N1CCN=C21 [COPANLISIB]           FALSE
5  COc1cc([C@@H]2c3cc4c(cc3[C@H](O)[C@H]3COC(=O)[C@@H]23)OCO4)cc(OC)c1OC [AXL-1717]           FALSE
6  Cc1nc2cc(-c3nn(C(C)C)c4ncnc(N)c34)ccc2o1            TRUE
7  CCOc1cc2ncc(C#N)c(Nc3ccc(F)c(Cl)c3)c2cc1NC(=O)/C=C/CN(C)C [PELITINIB]           FALSE
8  C=CC(=O)N1CCC[C@H](n2c(=O)n(-c3ccc(Oc4ccccc4)cc3)c3c(N)ncnc32)C1           FALSE

---

Active and inactive are the calls of the source.
Entries with reported Kd on Serine/threonine-protein kinase PAK 2 (Homo sapiens, UniProt Q13177)
Sequence (Q13177 whole entry): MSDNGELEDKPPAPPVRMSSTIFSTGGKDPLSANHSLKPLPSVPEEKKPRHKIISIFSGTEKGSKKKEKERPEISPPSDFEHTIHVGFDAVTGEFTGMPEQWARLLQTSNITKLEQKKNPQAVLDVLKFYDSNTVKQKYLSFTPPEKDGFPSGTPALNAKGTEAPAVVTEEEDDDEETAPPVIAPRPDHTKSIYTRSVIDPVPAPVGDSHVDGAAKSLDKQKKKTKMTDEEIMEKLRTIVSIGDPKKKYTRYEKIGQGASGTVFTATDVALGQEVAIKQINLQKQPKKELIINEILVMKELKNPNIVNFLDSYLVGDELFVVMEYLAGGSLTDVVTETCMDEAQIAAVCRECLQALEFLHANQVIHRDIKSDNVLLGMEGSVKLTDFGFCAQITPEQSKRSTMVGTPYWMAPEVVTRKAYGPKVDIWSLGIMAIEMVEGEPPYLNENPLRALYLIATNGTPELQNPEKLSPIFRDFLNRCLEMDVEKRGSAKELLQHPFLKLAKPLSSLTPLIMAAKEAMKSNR
Property: Kd

Compound	System under test	Property	Result value
COc1cc([C@@H]2c3cc4c(cc3[C@H](O)[C@H]3COC(=O)[C@@H]23)OCO4)cc(OC)c1OC [AXL-1717]	Serine/threonine-protein kinase PAK 2 (Homo sapiens, UniProt Q13177)	Kd	> 30 µM (inactive)
O=c1[nH]ccc2cc(OC3CCNCC3)ccc12 [SAR-407899 FREE BASE]	Serine/threonine-protein kinase PAK 2 (Homo sapiens, UniProt Q13177)	Kd	> 30 µM (inactive)
O=C(Nc1cc(C(F)(F)F)cc(C(F)(F)F)c1)c1cc(Cl)ccc1O [IMD-0354]	Serine/threonine-protein kinase PAK 2 (Homo sapiens, UniProt Q13177)	Kd	> 30 µM (inactive)
CNC(=O)c1cc(Oc2ccc(NC(=O)Nc3cc(C(C)(C)C)nn3-c3ccc4ncccc4c3)c(F)c2)ccn1 [REBASTINIB]	Serine/threonine-protein kinase PAK 2 (Homo sapiens, UniProt Q13177)	Kd	> 30 µM (inactive)
CCS(=O)(=O)c1cccc(-c2cc(C(=O)NC3CCN(C)CC3)c(C)c3[nH]c4ncc(C)cc4c23)c1 [TAK-901]	Serine/threonine-protein kinase PAK 2 (Homo sapiens, UniProt Q13177)	Kd	> 30 µM (inactive)
COCc1c(-c2ccc(NC(=O)Nc3cc(C(F)(F)F)ccc3F)c(F)c2)c2c(N)ncnn2c1CN1CCOCC1	Serine/threonine-protein kinase PAK 2 (Homo sapiens, UniProt Q13177)	Kd	> 30 µM (inactive)
CC(C)c1cc(CNc2nc(Nc3cc(C4CC4)[nH]n3)cc(N3CCN(C)CC3)n2)on1 [XL-228]	Serine/threonine-protein kinase PAK 2 (Homo sapiens, UniProt Q13177)	Kd	> 30 µM (inactive)
CCNC(=O)C#Cc1ccc2c(c1)NC(=O)/C2=C(\Nc1ccc(CN(C)C)cc1)c1ccccc1	Serine/threonine-protein kinase PAK 2 (Homo sapiens, UniProt Q13177)	Kd	> 30 µM (inactive)
CCn1c(C(=O)N(C2CC2)C2CC2)cc2c3c(ncn3C)c(Nc3cc(C)n(C)n3)nc21 [BMS-911543]	Serine/threonine-protein kinase PAK 2 (Homo sapiens, UniProt Q13177)	Kd	> 30 µM (inactive)
O=C(Cc1ccc(-c2ccc(OCCN3CCOCC3)cc2)cn1)NCc1ccccc1 [TIRBANIBULIN]	Serine/threonine-protein kinase PAK 2 (Homo sapiens, UniProt Q13177)	Kd	> 30 µM (inactive)
CCCCCCCCCCCCCCCCCCOP(=O)([O-])OC1CC[N+](C)(C)CC1 [PERIFOSINE]	Serine/threonine-protein kinase PAK 2 (Homo sapiens, UniProt Q13177)	Kd	> 30 µM (inactive)
Cc1nc(Nc2n[nH]c3c2CN(C(=O)N[C@H](CN(C)C)c2ccccc2)C3(C)C)c2sccc2n1 [PF-03758309]	Serine/threonine-protein kinase PAK 2 (Homo sapiens, UniProt Q13177)	Kd	> 30 µM (inactive)
COc1cc(Nc2ncc3c(n2)-c2ccc(Cl)cc2C(c2c(F)cccc2OC)=NC3)ccc1C(=O)O [ALISERTIB]	Serine/threonine-protein kinase PAK 2 (Homo sapiens, UniProt Q13177)	Kd	> 30 µM (inactive)
O=C1NC(=O)[C@@H](c2cn3c4c(cccc24)CCC3)[C@@H]1c1c[nH]c2ccccc12 [TIVANTINIB]	Serine/threonine-protein kinase PAK 2 (Homo sapiens, UniProt Q13177)	Kd	> 30 µM (inactive)
CO[C@H]1C[C@@H]2CC[C@@H](C)[C@@](O)(O2)C(=O)C(=O)N2CCCC[C@H]2C(=O)O[C@H]([C@H](C)C[C@@H]2CC[C@@H](OP(C)(C)=O)[C@H](OC)C2)CC(=O)[C@H](C)/C=C(\C)[C@@H](O)[C@@H](OC)C(=O)[C@H](C)C[C@H](C)/C=C/C=C/C=C/1C [RIDAFOROLIMUS]	Serine/threonine-protein kinase PAK 2 (Homo sapiens, UniProt Q13177)	Kd	> 30 µM (inactive)
